The measured values listed here are drawn from PubChem BioAssay AID1963447.

# viability, T/C per record follows
# Test system: 885512-296-R-J2-PDC complex spheroid growth, % test/control
# ASSAY NAME: Anticancer human tumor 885512-296-R-J2-PDC patient-derived breast carcinoma cell line growth inhibition [Asc]
# CONDITION NOTES: second compound 0.01 µM; first compound 3.16 µM; stronger effect = lower value
MEASURED METRIC: viability, T/C (%)

INSERT INTO measurements (molecule, measured_metric, observed_value) VALUES
  ('O=C(c1cc(Cc2n[nH]c(=O)c3ccccc23)ccc1F)N1CCN(C(=O)C2CC2)CC1 + CNC(C)C(=O)NC1CN(S(=O)(=O)c2cccc(S(=O)(=O)N3CCC4CCC(C(=O)NC(c5ccccc5)c5ccccc5)N4C(=O)C(NC(=O)C(C)NC)C3)c2)CCC2CCC(C(=O)NC(c3ccccc3)c3ccccc3)N2C1=O', 'viability, T/C', 60.7),
  ('C=C(F)C(=O)N1CCN(c2nc(OCC3CCCN3C)nc3c2CCN(c2cccc4cccc(Cl)c24)C3)CC1CC#N (centres undefined) + CNC(C)C(=O)NC1CN(S(=O)(=O)c2cccc(S(=O)(=O)N3CCC4CCC(C(=O)NC(c5ccccc5)c5ccccc5)N4C(=O)C(NC(=O)C(C)NC)C3)c2)CCC2CCC(C(=O)NC(c3ccccc3)c3ccccc3)N2C1=O', 'viability, T/C', 43.8),
  ('C=CC(=O)N1CCN(c2nc(=O)n(-c3c(C)ccnc3C(C)C)c3nc(-c4c(O)cccc4F)c(F)cc23)C(C)C1 (centres undefined) + CNC(C)C(=O)NC1CN(S(=O)(=O)c2cccc(S(=O)(=O)N3CCC4CCC(C(=O)NC(c5ccccc5)c5ccccc5)N4C(=O)C(NC(=O)C(C)NC)C3)c2)CCC2CCC(C(=O)NC(c3ccccc3)c3ccccc3)N2C1=O', 'viability, T/C', 90.6),
  ('C#Cc1c(F)ccc2cc(O)cc(-c3ncc4c(N5CC6CCC(C5)N6)nc(OCC56CCCN5CC(F)C6)nc4c3F)c12 (centres undefined) + CNC(C)C(=O)NC1CN(S(=O)(=O)c2cccc(S(=O)(=O)N3CCC4CCC(C(=O)NC(c5ccccc5)c5ccccc5)N4C(=O)C(NC(=O)C(C)NC)C3)c2)CCC2CCC(C(=O)NC(c3ccccc3)c3ccccc3)N2C1=O', 'viability, T/C', 89.9);

* * *

Listed here are compounds together with their documented viability, T/C.
# System: 885512-296-R-J2-PDC complex spheroid growth, % test/control
# ASSAY NAME: Anticancer human tumor 885512-296-R-J2-PDC cell line growth inhibition [Asc];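 also: spheroids exposed to compounds for seven days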;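 as to viability, T/C: 100% = DMSO vehicle control wells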
# CONDITION NOTES: second compound 10 µM; first compound 0.00316 µM; stronger effect = lower value
MEASURED METRIC: viability, T/C (%)

INSERT INTO assay_data (compound, measured_metric, scale_unit, observed_value) VALUES
  ('O=C(c1ccc(F)c(F)c1Nc1ccc(I)cc1F)N1CC(O)([C@@H]2CCCCN2)C1 + Cc1c(S(C)(=O)=O)c(-c2cc(F)cc(N3CCN(c4ccc(NS(=O)(=O)c5ccc(NC(CCN6CCC(C(=O)OCCCP(=O)(O)O)CC6)CSc6ccccc6)c(S(=O)(=O)C(F)(F)F)c5)cc4)CC3)c2)c(-c2ccc(Cl)cc2)n1C(C)C', 'viability, T/C', '%', 111),
  ('Cn1ncnc1[C@H]1c2n[nH]c(=O)c3cc(F)cc(c23)N[C@@H]1c1ccc(F)cc1 + Cc1c(S(C)(=O)=O)c(-c2cc(F)cc(N3CCN(c4ccc(NS(=O)(=O)c5ccc(NC(CCN6CCC(C(=O)OCCCP(=O)(O)O)CC6)CSc6ccccc6)c(S(=O)(=O)C(F)(F)F)c5)cc4)CC3)c2)c(-c2ccc(Cl)cc2)n1C(C)C', 'viability, T/C', '%', 82.8),
  ('CCN1CCN(Cc2ccc(Nc3ncc(F)c(-c4cc(F)c5nc(C)n(C(C)C)c5c4)n3)nc2)CC1 + Cc1c(S(C)(=O)=O)c(-c2cc(F)cc(N3CCN(c4ccc(NS(=O)(=O)c5ccc(NC(CCN6CCC(C(=O)OCCCP(=O)(O)O)CC6)CSc6ccccc6)c(S(=O)(=O)C(F)(F)F)c5)cc4)CC3)c2)c(-c2ccc(Cl)cc2)n1C(C)C', 'viability, T/C', '%', 118),
  ('NC1CCC(NC2CC2c2ccccc2)CC1 (stereo unspecified) + Cc1c(S(C)(=O)=O)c(-c2cc(F)cc(N3CCN(c4ccc(NS(=O)(=O)c5ccc(NC(CCN6CCC(C(=O)OCCCP(=O)(O)O)CC6)CSc6ccccc6)c(S(=O)(=O)C(F)(F)F)c5)cc4)CC3)c2)c(-c2ccc(Cl)cc2)n1C(C)C', 'viability, T/C', '%', 99.5),
  ('COc1c(OCCCN2CCOCC2)ccc2c3n(c(=NC(=O)c4cnc(N)nc4)nc12)CCN3 + Cc1c(S(C)(=O)=O)c(-c2cc(F)cc(N3CCN(c4ccc(NS(=O)(=O)c5ccc(NC(CCN6CCC(C(=O)OCCCP(=O)(O)O)CC6)CSc6ccccc6)c(S(=O)(=O)C(F)(F)F)c5)cc4)CC3)c2)c(-c2ccc(Cl)cc2)n1C(C)C', 'viability, T/C', '%', 117),
  ('CNC(C)C(=O)NC1CN(S(=O)(=O)c2cccc(S(=O)(=O)N3CCC4CCC(C(=O)NC(c5ccccc5)c5ccccc5)N4C(=O)C(NC(=O)C(C)NC)C3)c2)CCC2CCC(C(=O)NC(c3ccccc3)c3ccccc3)N2C1=O (stereo unspecified) + Cc1c(S(C)(=O)=O)c(-c2cc(F)cc(N3CCN(c4ccc(NS(=O)(=O)c5ccc(NC(CCN6CCC(C(=O)OCCCP(=O)(O)O)CC6)CSc6ccccc6)c(S(=O)(=O)C(F)(F)F)c5)cc4)CC3)c2)c(-c2ccc(Cl)cc2)n1C(C)C', 'viability, T/C', '%', 112);

* * *

# Test system: 885512-296-R-J2-PDC complex spheroid growth, % test/control
# ASSAY NAME: Anticancer human tumor 885512-296-R-J2-PDC cell line growth inhibition [Asc];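 also: spheroids exposed to compounds for seven days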
# CONDITION NOTES: curve of first compound; second compound 0.01 µM
pIC50: −log10 of the molar value.
// 0 strictly below 6 in pIC50; 1 otherwise

INSERT INTO results (molecule, group) VALUES
  ('COc1c(OCCCN2CCOCC2)ccc2c3n(c(=NC(=O)c4cnc(N)nc4)nc12)CCN3 + CNC(C)C(=O)NC1CN(S(=O)(=O)c2cccc(S(=O)(=O)N3CCC4CCC(C(=O)NC(c5ccccc5)c5ccccc5)N4C(=O)C(NC(=O)C(C)NC)C3)c2)CCC2CCC(C(=O)NC(c3ccccc3)c3ccccc3)N2C1=O', 1),
  ('NC(=O)C(=Cn1cnc(-c2cc(C(F)(F)F)cc(C(F)(F)F)c2)n1)c1cncnc1 + CNC(C)C(=O)NC1CN(S(=O)(=O)c2cccc(S(=O)(=O)N3CCC4CCC(C(=O)NC(c5ccccc5)c5ccccc5)N4C(=O)C(NC(=O)C(C)NC)C3)c2)CCC2CCC(C(=O)NC(c3ccccc3)c3ccccc3)N2C1=O', 1),
  ('Cc1nc(N2CCC3(CC2)COC(C)C3N)c(CO)nc1Sc1ccnc(N)c1Cl (configuration not stated) + CNC(C)C(=O)NC1CN(S(=O)(=O)c2cccc(S(=O)(=O)N3CCC4CCC(C(=O)NC(c5ccccc5)c5ccccc5)N4C(=O)C(NC(=O)C(C)NC)C3)c2)CCC2CCC(C(=O)NC(c3ccccc3)c3ccccc3)N2C1=O', 1),
  ('C=C(F)C(=O)N1CCN(c2nc(OCC3CCCN3C)nc3c2CCN(c2cccc4cccc(Cl)c24)C3)CC1CC#N (configuration not stated) + CNC(C)C(=O)NC1CN(S(=O)(=O)c2cccc(S(=O)(=O)N3CCC4CCC(C(=O)NC(c5ccccc5)c5ccccc5)N4C(=O)C(NC(=O)C(C)NC)C3)c2)CCC2CCC(C(=O)NC(c3ccccc3)c3ccccc3)N2C1=O', 0),
  ('O=C(c1ccc(F)c(F)c1Nc1ccc(I)cc1F)N1CC(O)([C@@H]2CCCCN2)C1 + CNC(C)C(=O)NC1CN(S(=O)(=O)c2cccc(S(=O)(=O)N3CCC4CCC(C(=O)NC(c5ccccc5)c5ccccc5)N4C(=O)C(NC(=O)C(C)NC)C3)c2)CCC2CCC(C(=O)NC(c3ccccc3)c3ccccc3)N2C1=O', 1),
  ('C=CC(=O)N1CCN(c2nc(=O)n(-c3c(C)ccnc3C(C)C)c3nc(-c4c(O)cccc4F)c(F)cc23)C(C)C1 (configuration not stated) + CNC(C)C(=O)NC1CN(S(=O)(=O)c2cccc(S(=O)(=O)N3CCC4CCC(C(=O)NC(c5ccccc5)c5ccccc5)N4C(=O)C(NC(=O)C(C)NC)C3)c2)CCC2CCC(C(=O)NC(c3ccccc3)c3ccccc3)N2C1=O', 0);

* * *

Reported viability, T/C values are given for each entry in this list.
# Test system: 885512-296-R-J2-PDC complex spheroid growth, % test/control
# ASSAY NAME: Anticancer human tumor 885512-296-R-J2-PDC cell line growth inhibition [Asc];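 also: spheroids exposed to compounds for seven days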;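 as to viability, T/C: 100% = DMSO vehicle control wells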
# CONDITION NOTES: second compound 0.1 µM; first compound 0.0316 µM; stronger effect = lower value
MEASURED METRIC: viability, T/C

INSERT INTO results (compound, test_system, observed_value) VALUES
  ('O=C(c1ccc(F)c(F)c1Nc1ccc(I)cc1F)N1CC(O)([C@@H]2CCCCN2)C1 + Cc1c(S(C)(=O)=O)c(-c2cc(F)cc(N3CCN(c4ccc(NS(=O)(=O)c5ccc(NC(CCN6CCC(C(=O)OCCCP(=O)(O)O)CC6)CSc6ccccc6)c(S(=O)(=O)C(F)(F)F)c5)cc4)CC3)c2)c(-c2ccc(Cl)cc2)n1C(C)C', '885512-296-R-J2-PDC complex spheroid growth, % test/control', '69.9%'),
  ('NC1CCC(NC2CC2c2ccccc2)CC1 (centres undefined) + Cc1c(S(C)(=O)=O)c(-c2cc(F)cc(N3CCN(c4ccc(NS(=O)(=O)c5ccc(NC(CCN6CCC(C(=O)OCCCP(=O)(O)O)CC6)CSc6ccccc6)c(S(=O)(=O)C(F)(F)F)c5)cc4)CC3)c2)c(-c2ccc(Cl)cc2)n1C(C)C', '885512-296-R-J2-PDC complex spheroid growth, % test/control', '123%'),
  ('O=C(c1ccc(F)c(F)c1Nc1ccc(I)cc1F)N1CC(O)([C@@H]2CCCCN2)C1 + CNC(C)C(=O)NC1CN(S(=O)(=O)c2cccc(S(=O)(=O)N3CCC4CCC(C(=O)NC(c5ccccc5)c5ccccc5)N4C(=O)C(NC(=O)C(C)NC)C3)c2)CCC2CCC(C(=O)NC(c3ccccc3)c3ccccc3)N2C1=O', '885512-296-R-J2-PDC complex spheroid growth, % test/control', '78.6%'),
  ('NC1CCC(NC2CC2c2ccccc2)CC1 (centres undefined) + CNC(C)C(=O)NC1CN(S(=O)(=O)c2cccc(S(=O)(=O)N3CCC4CCC(C(=O)NC(c5ccccc5)c5ccccc5)N4C(=O)C(NC(=O)C(C)NC)C3)c2)CCC2CCC(C(=O)NC(c3ccccc3)c3ccccc3)N2C1=O', '885512-296-R-J2-PDC complex spheroid growth, % test/control', '104%');
